targetUnderTest: Serine protease 1 (Homo sapiens, UniProt P07477)
Sequence (P07477 whole entry): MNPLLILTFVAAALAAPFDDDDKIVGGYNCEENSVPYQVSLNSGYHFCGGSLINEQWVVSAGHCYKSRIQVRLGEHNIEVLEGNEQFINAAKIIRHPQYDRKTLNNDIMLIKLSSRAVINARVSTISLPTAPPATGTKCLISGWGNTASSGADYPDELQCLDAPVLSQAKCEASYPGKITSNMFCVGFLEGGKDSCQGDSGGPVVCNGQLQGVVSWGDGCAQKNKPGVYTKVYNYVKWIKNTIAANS
assayRemarks: Inhibition of Trypsin
reportedProperty: Ki

Illustrative cases are given below, each with its answer.
1. Cc1cnc(NCCc2ccccc2)c(=O)n1CC(=O)NCc1ccc2cc[nH]c2c1; > 100 µM
2. Cc1cnc(NCCc2ccccn2)c(=O)n1CC(=O)NCc1ccc2[nH]ccc2n1; > 1000 µM
3. Cc1cnc(NCCc2ccccc2)c(=O)n1CC(=O)NCc1ccn2ccnc2c1; 120 µM

[Q] Looking for the measured Ki of Cc1cnc(NCCc2ccccc2)c(=O)n1CC(=O)NCc1ccc2[nH]ccc2c1 , can you help?
[A] > 100 µM

* * *

assayRemarks: Cmax in dog after oral administration at 1 mg/kg
Type: ADME, organism-based, Canis lupus familiaris
Parameters: dose 1 mg/kg, route oral
runConditions: in vivo
reportedProperty: Cmax (nM)

Solved cases below.
1) Cc1cnc(NCCc2ccccn2)c(=O)n1CC(=O)NCc1cnc2[nH]ccc2c1; 2100
2) Cc1cnc(NCCc2ccccc2)c(=O)n1CC(=O)NCc1cc2cc[nH]c2cn1; 2690

I: Cc1nc(N)ccc1CNC(=O)Cn1c(C)cnc(NCCc2ccccc2)c1=O
II: Cc1cnc(NCCc2ccccn2)c(=O)n1CC(=O)NCc1cc2cc[nH]c2cn1
[Q] Problem: Given the entries I and II , determine which has the lower reported Cmax. Answer by quoting the chosen item's label.
[A] II
